Quick list: protein stability index per entry.
B1: TCEB3B (parent)
chain: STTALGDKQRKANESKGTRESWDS

Variants of: B1
protocolNotes: protein stability index of a GFP-peptide fusion (GPS, HEK-293T) (PSI 1-6); higher = more stable;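 note: lentivirally expressed fusions sorted by FACS into six bins by GFP to DsRed ratio, PSI derived from sequencing read proportions per bin multiplied by bin number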
runParameters: c terminus: a fixed tail appended
Number, no unit, nothing else.

# example entries with known answers
S1A :: 3.94
T2S :: 4.09
G17T :: 3.98

// field: protein stability index; key: S1V ; value = 4.06

// field: protein stability index; key: L5R ; value = 4.03
